- EXPERIMENT: MTT cytotoxicity assay
- TEST PARAMETERS: African green monkey, VERO-E6 cells
MEASURED ENDPOINT: CC50 (µg/mL)
Write down the numeric answer in µg/mL and omit the unit.

The measured CC50 associated with CC1=CC(=O)C(C(C)C)=CC1=O [Thymoquinone] reads 8.2

----------
- TARGET: SARS-CoV-2 M^PRO (Severe acute respiratory syndrome coronavirus 2)
- EXPERIMENT: biochemical
- Assay type: biochemical
MEASURED ENDPOINT: IC50 (µM)
Your answer is read as µM, so omit the unit and give the number.

# IC50 (molecule: CCCCC[C@H](O)CC(=O)CCc1ccc(O)c(OC)c1 [6-Gingerol] ) is 9.33
